Measured OD450 nm by item
target under test: T1, His-tagged CD47 recombinant protein, CD47-His (human, UniProt Q08722 19-141, limits assumed)
T1 construct: it is not restated for CD47-His; also called human CD47-His protein; antigen CD47-His; not shown: His tag
protocol summary: ELISA on coated CD47-His; Ab 0.533 nM
assay metric: OD450 nm

binder: 54G8G6 (antibody, V domains shown, Murine hybridoma antibody purified on protein G) VH: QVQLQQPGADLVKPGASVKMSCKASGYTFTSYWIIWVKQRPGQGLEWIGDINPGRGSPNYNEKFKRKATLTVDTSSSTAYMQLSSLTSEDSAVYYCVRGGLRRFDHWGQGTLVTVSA VL: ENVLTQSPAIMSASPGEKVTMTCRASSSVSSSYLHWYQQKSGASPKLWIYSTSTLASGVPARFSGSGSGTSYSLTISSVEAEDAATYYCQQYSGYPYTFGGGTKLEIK
assay metric: OD450 nm
recorded result: 2.99
//
binder: 25E3B5 (antibody, V domains shown, Murine hybridoma antibody purified on protein G) VH: QVQLQQPGTALVRPGSSVKLSCKASGYTFTSYWMHWVRQRPIKGLEWIGNIDPSDSETHYNQRFKDKVTLTVDKSSNTAYMQLSSLTSEDSAVYYCARWKYHGIGAMDYWGQGTSVTVSS VL: DVQITQSPSYLAASPGETVTISCRTNRNISKFLAWYQEKPGKTNKLLIYSGSTLHSGIPSRFSGSGSGTDFTLTISRLEPEDFAMYYCQQHNEYPWSFGGGTKLEIK
assay metric: OD450 nm
recorded result: 2.91
//
binder: 132D1E5 (antibody, V domains shown, Murine hybridoma antibody purified on protein G) VH: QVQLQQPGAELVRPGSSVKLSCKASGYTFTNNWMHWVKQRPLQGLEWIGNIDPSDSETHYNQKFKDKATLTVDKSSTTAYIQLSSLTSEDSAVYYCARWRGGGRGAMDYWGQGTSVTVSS VL: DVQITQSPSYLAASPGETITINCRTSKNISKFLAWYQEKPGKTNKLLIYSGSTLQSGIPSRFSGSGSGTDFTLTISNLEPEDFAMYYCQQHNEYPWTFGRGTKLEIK
assay metric: OD450 nm
recorded result: 2.96
//
binder: 4D10B11 (antibody, V domains shown, Murine hybridoma antibody purified on protein G) VH: QVQLQQSGPELVKPGASVKISCKASGYSFTSYYIHWVKQRPGQGLEWIGWIYPGSGNTKYNEKFKGKATLTADTSSSTADMQLSSLTSEDSAVYYCARRGDWYFDVWGTGTTVTVSS VL: DIVMSQSPSSLVVSVGEKVTMNCKSSQSLLFSGNQKSSLAWYQQKPGQSPKLLIYWASTRESGVPDRFTGSGSGTDFTLIISTVKAEDLAVYSCQQYYSYPLTFGAGTKLELK
assay metric: OD450 nm
recorded result: 2.94
